Target: Neuronal acetylcholine receptor subunit alpha-7 (Homo sapiens, UniProt P36544)
Sequence (P36544 whole entry): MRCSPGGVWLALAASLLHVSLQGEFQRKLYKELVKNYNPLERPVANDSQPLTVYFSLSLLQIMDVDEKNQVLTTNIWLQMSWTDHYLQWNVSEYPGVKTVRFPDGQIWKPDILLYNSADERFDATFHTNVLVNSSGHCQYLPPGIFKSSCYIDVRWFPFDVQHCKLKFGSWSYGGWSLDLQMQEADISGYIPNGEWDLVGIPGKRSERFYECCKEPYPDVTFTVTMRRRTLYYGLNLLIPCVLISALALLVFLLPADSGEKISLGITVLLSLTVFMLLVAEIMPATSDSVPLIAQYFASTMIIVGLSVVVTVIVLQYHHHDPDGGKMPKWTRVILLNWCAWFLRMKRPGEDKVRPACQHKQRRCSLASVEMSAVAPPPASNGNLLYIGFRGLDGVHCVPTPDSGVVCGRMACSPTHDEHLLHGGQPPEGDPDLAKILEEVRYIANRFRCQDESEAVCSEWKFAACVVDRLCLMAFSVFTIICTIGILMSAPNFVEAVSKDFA
Assay: Antagonist activity at human alpha7 nACHR expressed in Xenopus laevis oocytes assessed as inhibition of acetylcholine-induced currents at -70 mV holding potential by electrophysiology
pIC50: −log10 of the molar value.
result.type: pIC50

1) CC(C)=CCC[C@](C)(O)[C@@H]1CC=C(C)CC1 :: 5.51

====

Test system: HepG2
Assay: Cytotoxicity against human HepG2 cells assessed as inhibition of cell proliferation after 24 hrs by WST1 assay
Type: functional, cell-based
Conditions: HepG2, 24 h
pIC50: −log10 of the molar value.
result.type: pIC50

1. C=C[C@@](C)(O)CCC=C(C)C :: 3.54

====

Tested on: MHCC97H
Test: Antiinvasive activity against human MHCC97H cells by matrigel-based transwell assay
Format: functional, cell-based
pIC50: −log10 of the molar value.
result.type: pIC50

1) C=C(C)[C@H]1CC=C(CO)CC1 :: 4.00

====

Target: Transient receptor potential cation channel subfamily A member 1 (Homo sapiens)
Test: Antagonist activity at TRPA1 (unknown origin) expressed in Xenopus laevis oocytes assessed as inhibition of mustard oil-induced currents by two-electrode voltage clamp method
result.type: IC50 (µM)

1) CC1(C)C2CCC1(C)C(O)C2 (stereo unspecified) :: 300

====

Assay: Toxicity in po dosed albino Wistar rat
Type: organism-based
Details: in vivo
result.type: LD50 (mg/kg)

1) CC(C)=CCC/C(C)=C/CO :: 3600

====

System: HT-29
Experiment: Cytotoxicity against human HT-29 cells assessed as reduction in cell viability after 24 hrs by MTT assay
Type: functional, cell-based
Conditions: HT-29, 24 h
result.type: IC50 (µM)

1) C/C1=C\CC/C(C)=C/CC(C)(C)/C=C/C1 [ALPHA-HUMULONE] :: 54

====

Target: Transient receptor potential cation channel subfamily A member 1 (Homo sapiens, UniProt O75762)
Sequence (O75762 whole entry): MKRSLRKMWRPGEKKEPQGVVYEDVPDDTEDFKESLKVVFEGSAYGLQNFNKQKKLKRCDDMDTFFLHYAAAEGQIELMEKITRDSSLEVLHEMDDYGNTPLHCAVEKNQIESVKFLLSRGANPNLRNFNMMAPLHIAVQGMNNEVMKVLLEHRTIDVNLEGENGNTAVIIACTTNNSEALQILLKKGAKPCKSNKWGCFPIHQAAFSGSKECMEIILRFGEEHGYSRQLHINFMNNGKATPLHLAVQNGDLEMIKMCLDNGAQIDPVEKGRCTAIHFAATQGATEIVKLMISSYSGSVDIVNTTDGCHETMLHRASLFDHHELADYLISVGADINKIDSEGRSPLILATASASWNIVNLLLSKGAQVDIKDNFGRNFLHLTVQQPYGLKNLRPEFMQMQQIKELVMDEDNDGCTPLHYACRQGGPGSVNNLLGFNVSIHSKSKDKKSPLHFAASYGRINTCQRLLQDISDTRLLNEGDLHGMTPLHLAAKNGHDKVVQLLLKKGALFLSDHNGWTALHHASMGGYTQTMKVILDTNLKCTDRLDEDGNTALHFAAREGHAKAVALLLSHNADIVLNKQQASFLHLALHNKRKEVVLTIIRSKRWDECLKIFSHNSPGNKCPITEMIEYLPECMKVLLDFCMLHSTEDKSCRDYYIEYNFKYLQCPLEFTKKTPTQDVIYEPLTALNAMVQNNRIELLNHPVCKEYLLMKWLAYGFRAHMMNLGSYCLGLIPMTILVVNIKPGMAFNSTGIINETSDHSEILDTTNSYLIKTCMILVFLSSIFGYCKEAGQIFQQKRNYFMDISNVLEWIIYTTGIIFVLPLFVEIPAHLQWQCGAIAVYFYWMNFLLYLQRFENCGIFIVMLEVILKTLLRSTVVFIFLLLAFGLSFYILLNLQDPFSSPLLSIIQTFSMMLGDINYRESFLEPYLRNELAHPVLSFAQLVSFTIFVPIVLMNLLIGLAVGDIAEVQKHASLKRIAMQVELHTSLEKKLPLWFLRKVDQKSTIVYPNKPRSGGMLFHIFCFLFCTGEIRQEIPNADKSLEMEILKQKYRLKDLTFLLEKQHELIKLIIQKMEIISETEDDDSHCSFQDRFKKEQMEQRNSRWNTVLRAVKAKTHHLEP
Assay: Agonist activity at human TRPA1
pEC50: −log10 of the molar value.
result.type: pEC50

1. C=C1CCC[C@]2(C)CC[C@@H](C(C)(C)O)C[C@@H]12 :: 4.48

====

Experiment: Dermal toxicity in rabbit
Assay type: organism-based, Oryctolagus cuniculus
Conditions: in vivo, topical or ocular
result.type: LD50

1) C=CC(C)(O)CC/C=C(\C)CCC=C(C)C (stereo unspecified) :: > 2000 mg/kg

====

Test: Toxicity in po dosed mouse
Format: organism-based
Conditions: in vivo
result.type: LD50 (mg/kg)

1) C=CC(C)(O)CC/C=C(\C)CCC=C(C)C (stereo unspecified) :: 10000

====

Tested on: SW-620
Experiment: Cytotoxicity against human SW620 cells assessed as inhibition of cell proliferation after 24 hrs by WST1 assay
Format: functional, cell-based
Conditions: SW-620, 24 h
result.type: IC50

1. C=C[C@@](C)(O)CCC=C(C)C :: 222 µM

====

Experiment: Toxicity in po dosed rat
Type: organism-based
Settings: in vivo
result.type: LD50 (mg/kg)

1) C=CC(C)(O)CC/C=C(\C)CCC=C(C)C (stereo unspecified) :: 5000
